All figures here come from ChEMBL document CHEMBL1201862.

Some molecules, each annotated with its measured GI50.
test system: UO-31; assay: NCI tumour cell line growth inhibition, 48 h
Active and inactive are the calls of the source. Cut-off read from the data, not from the text of the source: active = GI50 up to about 1.1 µM and inactive = higher.
endpoint.name: GI50

>>> value_observed("Nc1nc(N)nc(-c2cnc3ccccc3c2)n1")
"> 100 µM (inactive)"
>>> value_observed("O=C(c1cccnc1)N1N=C(c2ccccc2)CC1(O)c1cc(F)c(Cl)cc1Cl (stereo not drawn)")
"25.6 µM (inactive)"
>>> value_observed("CC12CC3OC(=O)C1COC14OC5(C2C1=O)C(O)(CCC1C4CC2OC24CC=CC(=O)C14C)C(=O)OC35C (stereo not drawn)")
"16.9 µM (inactive)"
>>> value_observed("Oc1cc(/C=C/c2ccccc2)nc2cc3c(cc12)OCO3")
"6.01 µM (inactive)"
>>> value_observed("CC[C@]12C=CCN3CCC4(c5cc([C@@]6(C(=O)OC)CC7CN(CCc8c6[nH]c6ccccc86)C[C@@H]6CCC[C@H]76)c(OC)cc5N(C)C4[C@](O)(C(=O)OC)C1OC(C)=O)C32 (stereo partly drawn)")
"3.55 µM (inactive)"
>>> value_observed("COc1ccc2c3c([nH]c2c1[N+](=O)[O-])C(C)N(Cc1ccc([N+](=O)[O-])cc1)CC3 (stereo not drawn)")
"13.2 µM (inactive)"
>>> value_observed("CC(=O)C(C(c1ccccc1)N1CCOCC1)N1CCOCC1 (stereo not drawn)")
"> 100 µM (inactive)"
>>> value_observed("CN(C)C(=O)Nc1cc2c3c(c1)CCCN3CCC2")
"> 10 µM (inactive)"
>>> value_observed("CC1=CC2CCC1(C)C/C2=C(/C)OC=O (stereo not drawn)")
"> 100 µM (inactive)"
>>> value_observed("CCCCCCCC[N+](C)(C)Cc1ccc(C[N+](C)(C)CCCCCCCC)cc1")
"> 100 µM (inactive)"
>>> value_observed("C=Cc1c(C)c2cc3nc(c4c5[nH]c(cc6nc(cc1[nH]2)C(C)=C6CC)c(C)c5C(=O)C4C(=O)OC)C(CCC(=O)OC)C3C (stereo not drawn)")
"> 100 µM (inactive)"
>>> value_observed("COc1ccc(OC)c2c1C[C@@H]1C(C#N)N3[C@H](Cc4c(OC)ccc(OC)c4[C@@H]3C)C(=O)N1[C@H]2C (stereo partly drawn)")
"2.25 µM (inactive)"
>>> value_observed("N#C/C(=C\\c1ccncc1)c1csc2ccccc12")
"24.9 µM (inactive)"
>>> value_observed("O=C1C(CN2CCCC2)CCC1CN1CCCC1 (stereo not drawn)")
"17.8 µM (inactive)"
>>> value_observed("COc1ccc(-c2cc(-c3ccccc3)nc(/N=C\\c3ccccc3)n2)c(O)c1")
"3.99 µM (inactive)"
>>> value_observed("C=C1C(=O)OC2/C=C(\\C)CC/C=C(\\C)CC(OC(=O)/C(=C/CO)CO)[C@@H]12 (stereo partly drawn)")
"11.6 µM (inactive)"
>>> value_observed("COc1ccc(C2C3=C(Nc4ncnn42)c2ccccc2OC3c2ccccc2)cc1 (stereo not drawn)")
"50.1 µM (inactive)"
>>> value_observed("ClC1c2ccccc2C2(c3ccccc3)OOC1(c1ccccc1)O2 (stereo not drawn)")
"1.69 µM (inactive)"
